These entries and their values trace back to paper PMC7854383.

Target: wild-type OCT2 (Homo sapiens, UniProt O15244)
Sequence (O15244 whole entry S270A): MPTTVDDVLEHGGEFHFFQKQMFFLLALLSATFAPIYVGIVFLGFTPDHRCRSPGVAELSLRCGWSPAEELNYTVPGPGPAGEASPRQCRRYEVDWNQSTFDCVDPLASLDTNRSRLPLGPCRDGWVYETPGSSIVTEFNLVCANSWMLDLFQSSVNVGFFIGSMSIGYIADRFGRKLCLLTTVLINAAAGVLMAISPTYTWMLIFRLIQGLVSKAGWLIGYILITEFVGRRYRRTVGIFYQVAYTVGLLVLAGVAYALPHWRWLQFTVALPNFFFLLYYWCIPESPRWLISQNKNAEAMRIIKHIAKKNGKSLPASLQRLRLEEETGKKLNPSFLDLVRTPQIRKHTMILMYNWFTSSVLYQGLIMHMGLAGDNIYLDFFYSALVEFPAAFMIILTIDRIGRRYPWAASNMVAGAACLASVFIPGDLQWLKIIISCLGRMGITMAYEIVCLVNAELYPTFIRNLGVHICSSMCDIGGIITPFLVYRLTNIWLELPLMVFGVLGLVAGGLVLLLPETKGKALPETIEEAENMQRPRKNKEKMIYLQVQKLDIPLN
Experiment: Concentration-dependent transport by wild-type OCT2 in HEK293 cells
Settings: human, pH 7.4
Measurement Kind: Km at 2 min (µM)

{"columns": ["Molecule", "Measurement Kind", "Unit Abbrev", "Number"],
 "data": [
  ["CN[C@@H](C)Cc1ccccc1", "Km at 2 min", "µM", 11.9],
  ["C[C@H](N)[C@@H](O)c1ccccc1 [Cathine, (+)-norpseudoephedrine]", "Km at 2 min", "µM", 46]
]}
